Data origin: ChEMBL document CHEMBL5360535

Test: Selectivity index, ratio of IC50 for African green monkey Vero cells to IC50 for Plasmodium falciparum W2
Format: toxicity, cell-based
Settings: read-out: Ratio IC50
READOUT_KIND: selectivity ratio

Worked set:
STRUCTURE_AS_SMILES	RESULT
CC(C)=CCC/C(C)=C/CC/C(C)=C/Cn1cc(C(C)(C)O)nn1	> 7.2
C(=C\c1ccccc1)/Cn1cc(-c2ccccc2)nn1	> 1.4
CCCCCCCCc1cn(C/C=C/c2ccccc2)nn1	> 1.58

**Query** Given the entry CCCCCc1cn(C/C=C(\C)CC/C=C(\C)CCC=C(C)C)nn1 , report its measured selectivity ratio.
**Result** > 2.07

**Query** Given the entry CCCc1cn(C/C=C/c2ccccc2)nn1 , report its measured selectivity ratio.
**Result** < 1

**Query** Given the entry CCOC(=O)Cn1cc(C(=O)OC)nn1 , report its measured selectivity ratio.
**Result** > 1.7
